# measurement_protocol: Solubility in Glycerol/H2O (60/40)
# condition_set: glycerol/water (60/40), aqueous with cosolvent or surfactant or cyclodextrin
assay_readout: solubility

>  <compound>
[O]N1C2(CCOCC2)CC(NC(=O)NC2CC3(CCOCC3)N([O])C3(CCOCC3)C2)CC12CCOCC2 (stereo not drawn) [Compound 56]

>  <assay_readout>
solubility

>  <recorded_value>
~25 mM

$$$$
>  <compound>
COCCOCCOCCOCCOC1CN(C2CC3(CCOCC3)N([O])C3(CCOCC3)C2)C(=O)N(C2CC3(CCOCC3)N([O])C3(CCOCC3)C2)C1 (stereo not drawn) [Compound 70]

>  <assay_readout>
solubility

>  <recorded_value>
> 10 mM

$$$$
>  <compound>
O=C(NC1CC2(CCOCC2)N(O)C2(CCOCC2)C1)N(CCOCCO)C1CC2(CCOCC2)N(O)C2(CCOCC2)C1 (stereo not drawn) [Compound 71]

>  <assay_readout>
solubility

>  <recorded_value>
> 20 mM

$$$$
